molecular target: C-SH3 Grb2 (C-terminal SH3 domain of Grb2) (Homo sapiens, UniProt P62993); construct: isolated C-terminal SH3 domain, recombinant, expressed and purified as previously reported; assay: tryptophan fluorescence, titration of preformed C-SH3:Gab2 peptide complex; settings: read-out: apparent inhibition constant
Sequence (P62993 159-217 limits assumed): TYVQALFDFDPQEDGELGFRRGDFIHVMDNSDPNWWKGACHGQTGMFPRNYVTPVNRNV
pKi: −log10 of the molar value.
Readout name: pKi

Enquiry: Param item = CCOc1cc(CNCCc2ccc(OC)cc2)ccc1OCc1cccc(Cl)c1 ; retrieve measured pKi.
Return: ~5.30
